What inhibition at 10 min was measured for each of the following?
# TESTED ON: CYP1A1 (Rattus norvegicus, UniProt P00185)
# Sequence (P00185 whole entry): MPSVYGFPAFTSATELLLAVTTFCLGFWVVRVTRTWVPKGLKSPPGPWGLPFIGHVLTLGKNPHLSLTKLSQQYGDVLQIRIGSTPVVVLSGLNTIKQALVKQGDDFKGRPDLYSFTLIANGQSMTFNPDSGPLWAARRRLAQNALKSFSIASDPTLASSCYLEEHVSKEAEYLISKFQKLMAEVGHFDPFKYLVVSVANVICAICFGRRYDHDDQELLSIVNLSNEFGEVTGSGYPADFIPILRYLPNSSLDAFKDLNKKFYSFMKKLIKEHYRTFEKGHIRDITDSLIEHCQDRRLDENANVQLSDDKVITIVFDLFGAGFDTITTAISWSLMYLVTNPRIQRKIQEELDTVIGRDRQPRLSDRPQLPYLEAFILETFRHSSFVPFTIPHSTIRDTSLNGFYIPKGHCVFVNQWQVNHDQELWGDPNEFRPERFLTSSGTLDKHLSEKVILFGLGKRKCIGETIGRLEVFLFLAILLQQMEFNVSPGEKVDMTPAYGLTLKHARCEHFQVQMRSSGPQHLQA
# MEASUREMENT PROTOCOL: Inhibition of CYP1A1 activity in rat liver microsomes using benzo[alpha]pyrene as substrate at 100 nmol after 10 mins by fluorescence analysis
# Parameters: species or system Microsome
# EXPERIMENTAL CONTEXT: probe benzo[alpha]pyrene
Write down the numeric answer in % and omit the unit.

Tell me its inhibition at 10 min given CC(=O)NN1C(=O)C(Cc2ccccc2)=NN2C1=NN(C(C)=O)C2(C)c1ccc(C)cc1 (stereo not drawn) as the entry.
75.6

Tell me its inhibition at 10 min given COc1ccc(CC2=NN3C(=NN(C(C)=O)C3(C)c3ccc(C)cc3)N(N(C(C)=O)C(C)=O)C2=O)cc1 (stereo not drawn) as the entry.
48.2

Tell me its inhibition at 10 min given COc1ccc(C2N(C(C)=O)N=C3N2N=C(Cc2ccccc2)C(=O)N3N(C(C)=O)C(C)=O)cc1 (stereo not drawn) as the entry.
51.5

Tell me its inhibition at 10 min given COc1ccc(CC2=NN3C(=NN(C(C)=O)C3c3ccccc3)N(N(C(C)=O)C(C)=O)C2=O)cc1 (stereo not drawn) as the entry.
57.6

Tell me its inhibition at 10 min given CC(=O)NN1C(=O)C(Cc2ccccc2)=NN2C1=NN(C(C)=O)C2(C)c1ccccc1 (stereo not drawn) as the entry.
37.9

Tell me its inhibition at 10 min given COc1ccc(CC2=NN3C(=NN(C(C)=O)C34C(=O)N(C(C)=O)c3ccccc34)N(N(C(C)=O)C(C)=O)C2=O)cc1 (stereo not drawn) as the entry.
81.5

Tell me its inhibition at 10 min given CC(=O)N1N=C2N(N=C(Cc3ccccc3)C(=O)N2N(C(C)=O)C(C)=O)C1c1ccccc1 (stereo not drawn) as the entry.
20.6

Tell me its inhibition at 10 min given COc1ccc(Cc2nnc(N/N=C3\C(=O)Nc4ccccc43)n(N)c2=O)cc1 as the entry.
90.5

====

# MEASUREMENT PROTOCOL: Toxicity in po dosed mouse
# Type: organism-based
# EXPERIMENTAL CONTEXT: in vivo
OBSERVATION TYPE: LD50

Tell me its LD50 given COc1ccc(Cc2nnc(N/N=C3\C(=O)Nc4ccccc43)n(N)c2=O)cc1 as the entry.
> 350 mg/kg

Tell me its LD50 given CC(=O)NN1C(=O)C(Cc2ccccc2)=NN2C1=NN(C(C)=O)C2(C)c1ccc(Cl)cc1 (racemic) as the entry.
> 350 mg/kg

Tell me its LD50 given Nn1c(N/N=C2\C(=O)Nc3ccccc32)nnc(Cc2ccccc2)c1=O as the entry.
> 350 mg/kg

Tell me its LD50 given COc1ccc(CC2=NN3C(=NN(C(C)=O)C34C(=O)N(C(C)=O)c3ccccc34)N(N(C(C)=O)C(C)=O)C2=O)cc1 (centres undefined) as the entry.
> 350 mg/kg
